- targetOrTestSystem: T1, human big-ET-1 (SEQ ID NO:434) (Homo sapiens, UniProt P05305)
- T1 sequence (P05305 53-90 limits assumed): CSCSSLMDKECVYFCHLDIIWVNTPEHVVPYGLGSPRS
- runDescription: Surface plasmon resonance (Biacore) binding, mAb capture format, 37° C.
reportedProperty: binding to human big-ET-1 (in words)

Reported binding to human big-ET-1 (in words) for H1M6494N: anti-big-ET-1 hybridoma antibody, H1M Fc; HCVR/LCVR SEQ ID NO: 50/58 (antibody, V domains shown, mouse Fc) VH: EVQLVESGGGLVKPGGSLRVSCVASGFTFSNAWMTWVRQTPGKGLECVGRIKSRTDGGTVDYVAPVKGRFTISRDDSKNTLYLQMNSLKAEDTAVYYCRADLDYWGQGTLVTVSS VL: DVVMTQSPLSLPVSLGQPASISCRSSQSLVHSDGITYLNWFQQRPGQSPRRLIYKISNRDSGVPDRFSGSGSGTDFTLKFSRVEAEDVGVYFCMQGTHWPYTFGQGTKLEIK was high affinity binding

Reported binding to human big-ET-1 (in words) for H1M6492N: anti-big-ET-1 hybridoma antibody, H1M Fc; HCVR/LCVR SEQ ID NO: 34/42 (antibody, V domains shown, mouse Fc) VH: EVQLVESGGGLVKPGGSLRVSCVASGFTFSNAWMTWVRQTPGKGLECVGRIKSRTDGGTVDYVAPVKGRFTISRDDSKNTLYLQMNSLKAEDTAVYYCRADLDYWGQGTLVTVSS VL: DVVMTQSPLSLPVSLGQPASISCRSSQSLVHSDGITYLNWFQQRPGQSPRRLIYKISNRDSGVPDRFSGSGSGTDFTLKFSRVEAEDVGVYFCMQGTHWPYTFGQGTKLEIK was high affinity binding

Reported binding to human big-ET-1 (in words) for H4H6317P: anti-big-ET-1 antibody, human IgG4 Fc; HCVR/LCVR SEQ ID NO: 130/138 (antibody, V domains shown, human IgG4 Fc) VH: QVQLVESGGGVVQPGRSLRLSCAASGFTFSSYGMHWVRQAPGKGLEWVAVLWYDGRNKYYADSVKGRFTISRDNSKNTLYLQMNSLRAEDTAVYYCARSYDAFDIWGQGTMVTVSS VL: DIQMTQSPSTLSASVGDRVTITCRASQSISSWLAWFQQGPGRAPKLLIYKASTLQSGVPSRFSGSGSGTEFTLTISSLQPDDFATYYCQQYRSYSPTFGQGTKVEIK was high affinity binding
